Reference source: paper PMC4890002

# experimental.system: CebE (SCAB57751, CebE^scab) (Streptomyces scabiei)
# Construct: gene SCAB_57751; N-terminally 6His-tagged CebE without its first 44 codons (signal peptide and membrane-anchoring lipopeptide), produced in E. coli
# Sequence (C9Z451 45-454): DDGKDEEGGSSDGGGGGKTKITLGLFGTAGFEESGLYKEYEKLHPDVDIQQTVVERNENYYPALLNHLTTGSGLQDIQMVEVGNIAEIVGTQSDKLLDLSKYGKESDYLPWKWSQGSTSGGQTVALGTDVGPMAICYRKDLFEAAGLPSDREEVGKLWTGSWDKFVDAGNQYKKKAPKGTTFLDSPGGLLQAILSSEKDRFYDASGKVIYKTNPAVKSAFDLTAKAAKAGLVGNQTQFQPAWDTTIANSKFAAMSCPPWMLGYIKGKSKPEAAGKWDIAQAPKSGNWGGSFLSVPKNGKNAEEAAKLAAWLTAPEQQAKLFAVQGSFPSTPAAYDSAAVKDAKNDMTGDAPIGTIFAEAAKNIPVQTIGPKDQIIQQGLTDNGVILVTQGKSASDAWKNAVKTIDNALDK
# test.description: intrinsic tryptophan fluorescence titration of purified protein
# Format: binding
# conditions.used: read-out: Kd

{"columns": ["molecule", "result.unit", "Kd"],
 "data": [
  ["OC[C@H]1O[C@@H](O[C@H]2[C@H](O)[C@@H](O)[C@H](O[C@H]3[C@H](O)[C@@H](O)C(O)O[C@@H]3CO)O[C@@H]2CO)[C@H](O)[C@@H](O)[C@@H]1O (stereo partly shown) [(Glc)3, cellotriose]", "nM", 2]
]}
